Attribution: the supplement of paper PMC11451515

Test system: NOMO1
run_description: cell viability relative to DMSO control; higher = less cytotoxic
run_parameters: RPMI 5 mM glucose + 10% FBS; 48 h; 0.19 µM
observable: cell viability (%)
Answer with a number only, understood to be in %.

Input: Please supply the value of reported cell viability for the item CC1(C)C(=O)N(CCN2CCC(C(=O)c3ccc(F)cc3)CC2)c2ccccc21
Output: 142

Input: Please supply the value of reported cell viability for the item NC1=NC=C(C=C1)C2=CC=C3N=CC\4=C(N(C(=O)\C=C4)C5=CC(=CC=C5)C(F)(F)F)C3=C2
Output: 29.7

Input: Please supply the value of reported cell viability for the item Cn1c(Nc2ccc(C(F)(F)F)cc2)nc2cc(Oc3ccnc(-c4nc(C(F)(F)F)c[nH]4)c3)ccc21
Output: 141

Input: Please supply the value of reported cell viability for the item CC(=O)N1CCN(c2ccc(OC[C@H]3CO[C@](Cn4ccnc4)(c4ccc(Cl)cc4Cl)O3)cc2)CC1
Output: 107

Input: Please supply the value of reported cell viability for the item CC(C)(C)c1cc(C=C(C#N)C#N)cc(Br)c1O
Output: 106

* * *

System: P12-Ichikawa
run_description: cell viability relative to DMSO control; higher = less cytotoxic
run_parameters: RPMI 5 mM glucose + 10% FBS; 48 h; 0.00702 µM
Recorded measurements of cell viability, one per entry
Answer with a number only, understood to be in %.

The cases that follow already have their cell viability on record.
1) CC(=O)CC(C1=CC=CC=C1)C/2=C(O)/C3=CC=CC=C3OC2=O (stereo not drawn) :: 130
2) COc1cc2c(Oc3ccc(NC(=O)C4(C(=O)Nc5ccc(F)cc5)CC4)cc3F)ccnc2cc1OCCCN1CCOCC1 :: 84.8
3) CN(C)C(=O)c1ccc([S+](=O)([O-])c2ccc(NC(=O)[C@@](C)(O)C(F)(F)F)c(Cl)c2)cc1 :: 107
4) Clc1cc(Cl)cc(CNc2ncncc2-c2ccc3c(c2)OCO3)c1 :: 91.3
5) COc1cc(Nc2ncc(F)c(Nc3ccc4c(n3)NC(=O)C(C)(C)O4)n2)cc(OC)c1OC :: 126
6) C=CC1=C(C(=O)O)N2C(=O)[C@@H](NC(=O)/C(=N\O)c3csc(N)n3)[C@H]2SC1 :: 66.1
7) CCC(=O)OCC(=O)[C@@]1(OC(=O)CC)[C@@H](C)C[C@H]2[C@@H]3CCC4=CC(=O)C=C[C@]4(C)[C@@]3(F)[C@@H](O)C[C@@]21C :: 121
8) CC(=O)Nc1ccc([C@H](C)C(=O)Nc2ncc(C(C)C)s2)cc1 :: 101

Input: Report value only: cell viability, P12-Ichikawa, [NH2][Pt]([NH2])([Cl])[Cl]
Output: 95.6

Input: Report value only: cell viability, P12-Ichikawa, O=C(CO)N1CCC(c2n[nH]c(-c3ccc(Cl)cc3)c2-c2ccncn2)CC1
Output: 118

Input: Report value only: cell viability, P12-Ichikawa, O=C(/C=C/c1c(C(=O)[O-])[nH]c2cc(Cl)cc(Cl)c12)Nc1ccccc1
Output: 107

Input: Report value only: cell viability, P12-Ichikawa, Oc1ccc(C2CCN(c3ccnc4ccccc34)CC2)cc1O
Output: 109

Input: Report value only: cell viability, P12-Ichikawa, NC(CO)(CO)CCc1ccc(Sc2cccc(OCc3ccccc3)c2)cc1Cl
Output: 101

Input: Report value only: cell viability, P12-Ichikawa, Cc1cccc(-c2nn(C(=S)Nc3ccccc3)cc2-c2ccnc3ccccc23)n1
Output: 113

Input: Report value only: cell viability, P12-Ichikawa, CCOc1cc(N)c(Cl)cc1C(=O)NCC1CN(Cc2ccc(F)cc2)CCO1 (stereo not drawn)
Output: 106
